Where do the numbers come from? From ChEMBL document CHEMBL1131275.

Target: UniProt:P25103
Sequence (P25103 whole entry): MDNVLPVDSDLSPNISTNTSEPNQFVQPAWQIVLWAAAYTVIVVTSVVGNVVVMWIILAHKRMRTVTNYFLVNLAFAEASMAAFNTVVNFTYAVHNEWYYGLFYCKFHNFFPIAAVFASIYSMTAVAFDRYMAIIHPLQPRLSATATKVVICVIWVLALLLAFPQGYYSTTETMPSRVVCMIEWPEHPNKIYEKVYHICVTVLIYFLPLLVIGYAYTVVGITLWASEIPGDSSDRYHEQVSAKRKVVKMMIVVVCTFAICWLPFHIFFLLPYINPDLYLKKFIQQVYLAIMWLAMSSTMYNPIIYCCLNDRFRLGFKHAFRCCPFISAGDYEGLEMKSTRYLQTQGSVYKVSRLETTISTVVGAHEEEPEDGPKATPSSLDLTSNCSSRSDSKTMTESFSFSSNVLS
Assay summary: Antagonist activity for Tachykinin receptor 1 as displacement of [3H]-Substance P in human IM-9 cells
Measured parameter: pIC50
Numbers only, as −log10 of the molar value.

COc1ccc(OC)c(CN[C@H]2CCCN[C@H]2c2ccccc2)c1    10.05

Items follow; give pIC50 for each.
1. FC(F)Oc1ccccc1CN[C@H]1CCCN[C@H]1c1ccccc1
2. COc1ccc(Cl)cc1CN[C@H]1CCCN[C@H]1c1ccccc1

A:
9.39
9.85

Here are 3 compounds. What values of pIC50 were reported for them?
1. CC(C)Oc1ccc(OC(F)(F)F)cc1CN[C@H]1CCCN[C@H]1c1ccccc1
2. FC(F)(F)Oc1ccccc1CN[C@H]1CCCN[C@H]1c1ccccc1
3. Oc1ccc(OC(F)(F)F)cc1CN[C@H]1CCCN[C@H]1c1ccccc1

A:
9.74
9.10
7.96

Each of the following entries comes with a recorded value; kindly state pIC50 for each.
1. COc1ccc(N(C)C)cc1CN[C@H]1CCCN[C@H]1c1ccccc1
2. CC(C)Oc1ccccc1CN[C@H]1CCCN[C@H]1c1ccccc1
3. COc1ccc(N(C)S(C)(=O)=O)cc1CN[C@H]1CCCN[C@H]1c1ccccc1
4. CCOc1ccc(OC(F)(F)F)cc1CN[C@H]1CCCN[C@H]1c1ccccc1

A:
9.25
9.34
9.96
9.85
